Biological target: T1, Fus1, P11710
T1 sequence (P11710 432-512, looked up): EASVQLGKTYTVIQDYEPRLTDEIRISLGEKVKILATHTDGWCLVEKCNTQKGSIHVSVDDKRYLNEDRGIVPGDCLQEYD
Test: SPOT array
Conditions: median of control spots 1200
readout: SPOT intensity
Answer field: number only, no words.

Observe how each entry below is paired with its result.
KFIPSRPAPKPPSSA: 0
TKHKAPPPPPPTAET: 0
YRRKSIPFAPHQITA: 2
TKPTPPPKPSHLKPK: 2

Look up SPOT intensity: YHSRRHPLALGFKYV 5

Next up: NPNRRAPRRPLSTQH 59

Proceed to SKSRLLIELPEGFFT 0

Please do the same for SNRRPVPRRPSQPLN as well. 0

Repeat with LYEAMPPTLPHRDWK 0

Param item: LLGRKRPVMERVVDI 0

// query: YYNRQELALPKRMSS 6

Field entry: QTREPNEPPPPSPAM 0

Try QNTPPLPPKPKSPHL next. 0
